- Study Target: Yer064c (UniProt P40041)
- Sequence: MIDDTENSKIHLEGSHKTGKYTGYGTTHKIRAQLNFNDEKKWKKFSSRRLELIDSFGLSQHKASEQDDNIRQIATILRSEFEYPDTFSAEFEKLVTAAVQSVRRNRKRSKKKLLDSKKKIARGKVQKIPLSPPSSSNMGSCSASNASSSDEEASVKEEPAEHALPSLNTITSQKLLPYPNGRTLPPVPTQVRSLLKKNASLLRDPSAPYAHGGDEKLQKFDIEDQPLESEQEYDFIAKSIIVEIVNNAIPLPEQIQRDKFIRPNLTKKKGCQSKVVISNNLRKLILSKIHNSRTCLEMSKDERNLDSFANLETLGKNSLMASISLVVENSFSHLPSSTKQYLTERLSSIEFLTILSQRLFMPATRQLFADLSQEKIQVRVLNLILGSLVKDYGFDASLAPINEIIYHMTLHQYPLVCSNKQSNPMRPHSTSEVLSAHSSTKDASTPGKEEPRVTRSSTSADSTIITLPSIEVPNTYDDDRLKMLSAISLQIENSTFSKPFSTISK
- Experiment Summary: PBM E-score (8-mer binding enrichment) (E-score (-0.5 to 0.5)); higher = stronger / more preferred TF binding
- Condition Summary: protein concentration: 200 nM; construct: GST-full length
The full ranking holds about 33,000 sequences; the median of “E-score (-0.5 to 0.5)” is about -0.036, and the highest 2% start at about 0.37. This is one part of a sample in which the highest values are shown more often than they occur.
Threshold rule: PBM E-score greater than or equal to -0.1 is criterion met; below that, criterion not met.

Record excerpt, results attached:
Input line: Could you tell me if the measured PBM E-score of `CCCAAGCC` reaches -0.1 or more?
Output line: criterion not met

Input line: Could you tell me if the measured PBM E-score of `ACAACGGT` reaches -0.1 or more?
Output line: criterion not met

Input line: Could you tell me if the measured PBM E-score of `AATACGCT` reaches -0.1 or more?
Output line: criterion not met

Input line: Could you tell me if the measured PBM E-score of `ATTTTGCG` reaches -0.1 or more?
Output line: criterion met

Input line: Could you tell me if the measured PBM E-score of `CACTCCCA` reaches -0.1 or more?
Output line: criterion met

Input line: Could you tell me if the measured PBM E-score of `AGGTACCG` reaches -0.1 or more?
Output line: criterion not met

Input line: Could you tell me if the measured PBM E-score of `AGTCACCC` reaches -0.1 or more?
Output line: criterion met

Input line: Could you tell me if the measured PBM E-score of `ACACCAGG` reaches -0.1 or more?
Output line: criterion not met

***
Input line: Could you tell me if the measured PBM E-score of `CCCACATA` reaches -0.1 or more?
Output line: criterion met

Input line: Could you tell me if the measured PBM E-score of `AGTCACCG` reaches -0.1 or more?
Output line: criterion met

Input line: Could you tell me if the measured PBM E-score of `AGACACCG` reaches -0.1 or more?
Output line: criterion met

Input line: Could you tell me if the measured PBM E-score of `GACTCCCA` reaches -0.1 or more?
Output line: criterion met

Input line: Could you tell me if the measured PBM E-score of `CTTGAGAA` reaches -0.1 or more?
Output line: criterion met

Input line: Could you tell me if the measured PBM E-score of `ATTTGGTG` reaches -0.1 or more?
Output line: criterion met

Input line: Could you tell me if the measured PBM E-score of `GGTCACCA` reaches -0.1 or more?
Output line: criterion met

Input line: Could you tell me if the measured PBM E-score of `TAGTCTCA` reaches -0.1 or more?
Output line: criterion met
